Assay: Phototoxicity against mouse 4T1 cells preincubated for 24 hrs followed by light irradiation of 20 mW.cm/2 at 400 to 700nm for 10 mins under hypoxia condition by CCK-8 method
Type: functional, cell-based
Conditions: 4T1, light or radiation study
Experimental Readout: IC50 (nM)
Report the value in nM with no unit label.

Reported IC50 ( O=c1cc2sc3cc(N4CCNCC4)ccc3nc-2c2ccccc12 ) = 693
